molecular target: Mannose-6-phosphate isomerase (Homo sapiens) (UniProt P34949); assay: MPI inhibition at elevated mannose 6-phosphate – biochemical, fluorescence intensity, high mannose 6-phosphate, primary screen (AID 1220); conditions: recombinant PMI enzyme, coupled fluorescence intensity; at 20 µM
Sequence (P34949 whole entry, looked up): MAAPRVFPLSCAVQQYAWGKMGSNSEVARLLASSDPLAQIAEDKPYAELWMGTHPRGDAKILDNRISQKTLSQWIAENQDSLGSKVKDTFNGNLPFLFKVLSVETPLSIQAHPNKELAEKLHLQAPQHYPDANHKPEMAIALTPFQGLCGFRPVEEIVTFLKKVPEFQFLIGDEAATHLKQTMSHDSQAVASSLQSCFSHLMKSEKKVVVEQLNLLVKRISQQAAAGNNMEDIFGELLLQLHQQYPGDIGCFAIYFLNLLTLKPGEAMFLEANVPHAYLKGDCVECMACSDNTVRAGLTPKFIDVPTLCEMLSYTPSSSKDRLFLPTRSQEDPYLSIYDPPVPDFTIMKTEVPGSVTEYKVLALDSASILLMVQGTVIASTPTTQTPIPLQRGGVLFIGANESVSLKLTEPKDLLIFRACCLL
About 1,300 (0.68%) of roughly 190,000 compounds were called active. Rule as the data show it: active = inhibition above about 50%; inactive = the rest. Shown is part of a subset that was picked to be rich in actives.
Bench note: report the call from T for active, F for inactive

Q) Per the records of this test, what outcome belongs to COc1ccc(C2CC(c3ccc(OC)cc3)n3nc(N)nc3N2)cc1 (centres undefined) ?
A) F

Q) What did this assay record as the result for CCOc1cc(N2CCOCC2)c(OCC)cc1NC(=O)CSc1ncccn1 ?
A) T

Q) Give the logged outcome of this assay for the following molecule: Cc1cc(C)nc(NS(=O)(=O)c2ccc(NC(=O)CN3C(=O)C4CC=CCC4C3=O)cc2)n1 (centres undefined)
A) F

Q) Record request — test call for CCOc1cc(N2CCOCC2)c(OCC)cc1NC(=O)CSc1nccc(C)n1
A) F

Q) What classification did COc1ccc2[nH]c3c(=O)n(Cc4ccc(C(=O)NCC5CCCO5)cc4)c(=S)[nH]c3c2c1 (centres undefined) end up with in this test?
A) F

Q) Tell me the recorded outcome of this test for O=c1cc(N2CCCCCC2)[nH]c(=O)n1-c1ccccc1Cl .
A) F

Q) Record request — test call for COC(=O)c1sc2ccccc2c1-n1cccc1C(=O)C(=O)Nc1ccc(C)cc1
A) F

Q) # lookup: test call for CCOc1cc(N2CCOCC2)c(OCC)cc1NC(=O)CSc1n[nH]c(N)n1
A) F

Q) Please let me know the test result on file for CCOc1cc(N2CCOCC2)c(OCC)cc1NC(=O)CSc1cccc[n+]1[O-] .
A) F

Q) Please let me know the test result on file for Cc1ccc(S(=O)(=O)N2CCCC2C(=O)Nc2nc3ccccc3s2)cc1 (centres undefined) .
A) F

Q) GET /call?item= Nc1ccc(O)cc1C(=O)OCC(=O)c1ccc(C2CCCCC2)cc1 returns the recorded outcome of this test.
A) T

Q) Check the results log: what was the call for O=C(CCNc1cccc(F)c1)c1cccc([N+](=O)[O-])c1 ?
A) F

Q) Name the outcome recorded for COc1ccc(C(=O)OCC(=O)c2ccc(C3CCCCC3)cc2)cc1 in the assay.
A) F

Q) Assay outcome for O=[N+]([O-])c1ccc(Cc2ccncc2)cc1 : what was it?
A) F

Q) Look up the recorded call for COc1ccc(CC(=O)NC(=S)Nc2ccc(S(N)(=O)=O)cc2)cc1 in this test.
A) F

Q) What was the test verdict on CC1CCN(S(=O)(=O)c2ccc(NC(=S)NC(=O)c3ccc(Cl)cc3)cc2)CC1 ?
A) F

Q) Would you mind telling me which call this test gave COC(=O)/C(=C1/Oc2ccc(C)cc2S1)C(F)(F)F ?
A) F

Q) Any idea what this test logged for CC1CCCCC1NC(=O)CO/N=C/c1ccccc1OC(F)F (centres undefined) ?
A) F

Q) Call for entry CCC(=O)c1ccc(OCC(O)CN2CCOCC2)cc1 (centres undefined) :
A) F

Q) Would you mind telling me which call this test gave COCc1cc(/C=N\NC(=O)COc2ccc(Cl)cc2)ccc1OC ?
A) F

Q) Test call, this molecule: CC(C)(C)NC(=O)Nc1ccc2nccnc2c1
A) F

Q) In this assay, the call recorded for O=C(C1CCCCN1S(=O)(=O)c1ccccc1)N1CCN(Cc2ccccc2)CC1 (centres undefined) was what?
A) F

Q) Hi, sorry to bother you, what did the test record for Cc1ccc(NCCC(=O)c2cccc([N+](=O)[O-])c2)cc1 ?
A) F

Q) What did the test return for CCOc1cc(N2CCOCC2)c(OCC)cc1NC(=O)CCC1CCCC1 ?
A) F

Q) I would be grateful if you could indicate the recorded call for COc1cccc(NCCC(=O)c2cccc([N+](=O)[O-])c2)c1 .
A) T

Q) What outcome does the record of this test show for O=C(COC(=O)CCOc1ccccc1)Nc1ccc(Cl)cn1 ?
A) F

Q) How was CCN1CCN(CC(=O)NC2CCCC2)C(=O)C1=O classified in this test?
A) F

Q) GET /call?item= O=C(Cn1ccc([N+](=O)[O-])n1)N1CCc2ccccc21 returns the recorded outcome of this test.
A) F

Q) Hi team, can someone confirm the assay call for COc1ccc(/C=C2\SC(=O)N(CCC(=O)Nc3ccc(S(=O)(=O)Nc4nccs4)cc3)C2=O)cc1 ?
A) F

Q) Hi, do you know how COc1cccc(C2CC(c3c(Cl)cccc3Cl)n3nc(N)nc3N2)c1 (centres undefined) came out in this test?
A) F

Q) Per the assay record, what outcome was assigned to CCOC(=O)N1CCN(Cc2c(NC(=O)c3ccco3)sc(C)c2C)CC1 ?
A) F

Q) Hey, what did the test say about O=C(CCNc1ccc(Cc2ccncc2)cc1)c1cccc([N+](=O)[O-])c1 ?
A) F

Q) # outcome recorded in this test, key = O=C(CCNc1ccc(Br)cc1)c1cccc([N+](=O)[O-])c1
A) F

Q) Just curious, what result did O=C1Nc2ccccc2Oc2cc([N+](=O)[O-])cc(Oc3ccccc3)c21 get here?
A) F

Q) Assay outcome for Cc1cccc(-n2nnc3c(=O)n(CC(=O)Nc4cc(C)on4)cnc32)c1 : what was it?
A) F

Q) What outcome does the record of this test show for COC1CCCN(Cc2cn(C)nc2-c2ccc(Oc3ccccc3)cc2)C1 (centres undefined) ?
A) F

Q) Please state the recorded outcome for this molecule: O=C(CCCC(=O)N1CCc2ccccc21)N1CCc2ccccc21
A) F

Q) Look up the recorded call for O=C(CSc1nnnn1CCCO)Nc1ccc2c(c1)OCO2 in this test.
A) F

Q) Record request — test call for CCOc1cc(N2CCOCC2)c(OCC)cc1NC(=O)CSc1ncn[nH]1
A) T
